# Tested on: KRAS G12V dependent lung adenocarcinoma cell line, NCI-H441
# Measurement protocol: Cellular pERK (Thr202/Tyr204) FRET/HTRF assay
# Assay type: cell-based
# Condition details: Homo sapiens, NCI-H441, cellular pERK (Thr202/Tyr204) HTRF, NCI-H441 cells
pIC50: −log10 of the molar value.
Readout name: pIC50

**Query** So what pIC50 did C=C1CN2CCC[C@@]2(COc2nc(N3CCCC[C@@H]4[C@@H](F)[C@@H]43)c3cnc(-c4cc(N)c(F)c(C)c4C(F)(F)F)c(F)c3n2)C1 [Example 393] get with KRAS G12V dependent lung adenocarcinoma cell line, NCI-H441?
**Result** 5.00 to 6.30

**Query** Field entry: [2H]C([2H])(F)Oc1c(F)ccc2cc(N)cc(-c3ncc4c(N5CCOC[C@H]6[C@H](F)[C@H]65)nc(OC[C@@]56CCCN5C[C@@H](C)C6)nc4c3F)c12 (single isomer, unassigned) [Example 214]
**Result** > 7.30

**Query** Field entry: [2H]C([2H])(Oc1nc(N2CCOC[C@H]3[C@H](F)[C@H]32)c2cnc(-c3cc(N)cc4ccc(F)c(CC)c34)c(F)c2n1)[C@@]12CCCN1C[C@H](F)C2 [Example 201]
**Result** > 7.30
